biological target: Receptor-type tyrosine-protein kinase FLT3 (Homo sapiens); also: in the data inactive means no Kd found up to 30 µM
Sequence (P36888 whole entry): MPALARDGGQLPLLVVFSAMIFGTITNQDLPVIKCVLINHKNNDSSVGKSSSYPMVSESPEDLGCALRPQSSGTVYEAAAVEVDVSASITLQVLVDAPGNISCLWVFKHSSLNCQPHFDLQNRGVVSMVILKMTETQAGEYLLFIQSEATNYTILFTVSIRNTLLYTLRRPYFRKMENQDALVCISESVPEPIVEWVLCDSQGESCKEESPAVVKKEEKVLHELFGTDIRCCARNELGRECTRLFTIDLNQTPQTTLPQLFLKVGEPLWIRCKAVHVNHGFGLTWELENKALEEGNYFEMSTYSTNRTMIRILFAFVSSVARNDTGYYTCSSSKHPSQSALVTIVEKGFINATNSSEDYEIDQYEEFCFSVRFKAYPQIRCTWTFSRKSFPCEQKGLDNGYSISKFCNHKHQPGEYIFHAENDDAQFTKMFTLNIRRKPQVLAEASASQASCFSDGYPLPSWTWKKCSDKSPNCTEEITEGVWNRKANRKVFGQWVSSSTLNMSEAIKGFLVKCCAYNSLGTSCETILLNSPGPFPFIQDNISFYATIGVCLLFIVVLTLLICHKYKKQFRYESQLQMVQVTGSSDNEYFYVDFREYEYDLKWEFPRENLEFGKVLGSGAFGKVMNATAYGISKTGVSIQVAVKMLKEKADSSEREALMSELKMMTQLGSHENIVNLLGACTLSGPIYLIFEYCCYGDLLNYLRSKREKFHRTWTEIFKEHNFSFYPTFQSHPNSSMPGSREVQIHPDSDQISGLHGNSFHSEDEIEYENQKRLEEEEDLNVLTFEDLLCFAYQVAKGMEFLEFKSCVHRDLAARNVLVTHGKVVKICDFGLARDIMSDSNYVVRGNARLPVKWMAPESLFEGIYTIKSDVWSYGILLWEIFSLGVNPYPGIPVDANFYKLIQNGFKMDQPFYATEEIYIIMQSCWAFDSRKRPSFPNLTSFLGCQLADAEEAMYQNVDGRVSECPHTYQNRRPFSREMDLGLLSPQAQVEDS
Where a name gives a salt, the structure may show the parent alone. The source made the active and inactive calls.
Write down one outcome, taken from active, inactive

Examples from the recorded data:
Per the records of this test, what outcome belongs to COc1cc2ncnc(Oc3cccc(NC(=O)Nc4cc(C(C)(C)C(F)(F)F)on4)c3)c2cc1OC [CEP-32496] ?
active

// same read-out, input: Cc1cc(Nc2ncc(Cl)c(Nc3ccccc3S(=O)(=O)C(C)C)n2)c(OC(C)C)cc1C1CCNCC1 [CERITINIB]
active

// same read-out, input: CCOc1cc2ncc(C#N)c(Nc3ccc(F)c(Cl)c3)c2cc1NC(=O)/C=C/CN(C)C [PELITINIB]
inactive

// same read-out, input: CNC(=O)c1nn(C)c2c1C(C)(C)Cc1cnc(Nc3ccc(N4CCN(C)CC4)cc3)nc1-2 [MILCICLIB]
active

// same read-out, input: N#CC1(c2ccc(NC(=O)c3cccnc3NCc3ccncc3)cc2)CCCC1 [RIVOCERANIB]
inactive

// same read-out, input: CNC(=O)c1cccc2cc(Oc3ccnc4cc(OCC5(N)CC5)c(OC)cc34)ccc12 [LUCITANIB]
inactive

More entries:
Per the records of this test, what outcome belongs to COCc1c(-c2ccc(NC(=O)Nc3cc(C(F)(F)F)ccc3F)c(F)c2)c2c(N)ncnn2c1CN1CCOCC1 ?
active

// same read-out, input: Cn1cc(-c2cnc3ccc4ccc(CS(=O)(=O)NCc5ccccn5)cc4c(=O)c3c2)cn1 [MK-8033]
inactive

// same read-out, input: C[C@@H](NC(=O)c1ncnc(N)c1Cl)c1ncc(C(=O)Nc2cc(C(F)(F)F)c(Cl)cn2)s1 [TOVORAFENIB]
inactive

// same read-out, input: CN(C[C@@H]1COCCO1)S(=O)(=O)Nc1ccc2ccc3ncc(-c4cnn(C)c4)cc3c(=O)c2c1 [MK-2461]
inactive

// same read-out, input: CCS(=O)(=O)N1CCN(c2ccc(Nc3ncc(C(N)=O)c(NC4CC4)n3)cc2)CC1 [Cerdulatinib Hydrochloride]
active

// same read-out, input: C=CC(=O)N1CCC[C@H](n2c(=O)n(-c3ccc(Oc4ccccc4)cc3)c3c(N)ncnc32)C1
inactive

// same read-out, input: CO[C@H]1C[C@@H]2CC[C@@H](C)[C@@](O)(O2)C(=O)C(=O)N2CCCC[C@H]2C(=O)O[C@H]([C@H](C)C[C@@H]2CC[C@@H](OP(C)(C)=O)[C@H](OC)C2)CC(=O)[C@H](C)/C=C(\C)[C@@H](O)[C@@H](OC)C(=O)[C@H](C)C[C@H](C)/C=C/C=C/C=C/1C [RIDAFOROLIMUS]
inactive

// same read-out, input: COc1cc2c(Nc3ccc(Cl)c(Cl)c3F)ncnc2cc1OC[C@@H]1C[C@@H]2CN(C)C[C@@H]2C1 [TESEVATINIB]
inactive

// same read-out, input: COc1ccc(S(=O)(=O)N(C(C)=O)c2ccccc2/C=C/c2cc[n+]([O-])cc2)cc1 [HMN-214]
inactive

// same read-out, input: O=c1[nH]ccc2cc(OC3CCNCC3)ccc12 [SAR-407899 FREE BASE]
inactive

// same read-out, input: Cn1ncc(Cl)c1-c1cc(C(=O)N[C@H](CN)Cc2ccc(F)c(F)c2)oc1Cl [UPROSERTIB]
inactive
